Sourced from patent US20090220554A1

- tested_on: recombinant human tissue transglutaminase 2 (TG2) (Homo sapiens)
- Construct: 6xHis; made in house; host or cells: E. coli BL21
- Sequence (P21980 whole entry): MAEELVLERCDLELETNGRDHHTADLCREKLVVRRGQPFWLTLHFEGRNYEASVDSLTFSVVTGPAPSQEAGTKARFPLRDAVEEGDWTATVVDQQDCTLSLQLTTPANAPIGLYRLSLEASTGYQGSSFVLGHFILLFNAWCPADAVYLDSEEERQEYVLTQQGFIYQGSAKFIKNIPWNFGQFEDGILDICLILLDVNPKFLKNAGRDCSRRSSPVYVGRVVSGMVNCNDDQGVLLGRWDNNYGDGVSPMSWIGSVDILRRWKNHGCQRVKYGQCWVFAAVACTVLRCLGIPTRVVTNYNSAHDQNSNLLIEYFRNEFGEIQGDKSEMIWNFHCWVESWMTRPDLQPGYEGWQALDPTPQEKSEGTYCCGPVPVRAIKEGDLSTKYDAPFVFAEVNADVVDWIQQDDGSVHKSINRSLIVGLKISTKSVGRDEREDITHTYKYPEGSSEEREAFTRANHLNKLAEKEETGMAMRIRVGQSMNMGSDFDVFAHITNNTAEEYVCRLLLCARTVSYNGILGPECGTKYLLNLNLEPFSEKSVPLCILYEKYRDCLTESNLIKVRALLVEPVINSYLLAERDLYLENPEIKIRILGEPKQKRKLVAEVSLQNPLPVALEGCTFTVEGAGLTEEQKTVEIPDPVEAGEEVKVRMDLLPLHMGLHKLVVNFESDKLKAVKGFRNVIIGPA
- assay_method_text: TG2 deamidation assay (GDH-coupled fluorescent NADH assay, Z-Gln-Gly substrate)
- Type: biochemical
- condition_set: fluorescent NADH-based deamidation assay; from log(concentration)-response relationships; read-out: IC50 for inhibition of TG2
pIC50: −log10 of the molar value.

{"molecule": "Cc1ccc2c(c1)C(=O)C(=O)N2CC(=O)Nc1ccc(S(=O)(=O)NCC2CCCO2)cc1 (stereo not drawn)", "pIC50": 3.82}
{"molecule": "Cc1cccc(NC(=S)N(Cc2cc3ccc(C)c(C)c3[nH]c2=O)CC2CCCO2)c1 (stereo not drawn)", "pIC50": 4.52}
{"molecule": "CCN1C(=O)c2cccc3c(NC(=O)CSc4ccc5ccccc5n4)ccc1c23", "pIC50": 3.70}
